The molecules listed here are annotated with their MIC.
Test system: Candida albicans
Assay: Antifungal activity against Candida albicans ATCC 3122 by twofold serial dilution method
Assay type: functional
The reply should contain only the number, in µg/mL.

Please review the following examples before continuing.
INSERT INTO measurements (molecule, assayed_target, experimental_result) VALUES
  ('Clc1ccc([C@H]2N[C@@H](c3ccc(Cl)cc3)C3CCCC2/C3=N/N=c2/[nH]c(-c3ccccc3)cs2)cc1', 'Candida albicans', 200),
  ('c1ccc(-c2cs/c(=N\N=C3\C4CCCC3[C@H](c3ccccc3)N[C@@H]4c3ccccc3)n2-c2ccccc2)cc1', 'Candida albicans', 12.5),
  ('C[C@@H]1[C@H](O)[C@@H](C)/C=C/C=C/C=C/C=C/C=C/C=C/C=C/[C@H](O[C@@H]2O[C@H](C)[C@@H](O)[C@H](N)[C@@H]2O)C[C@@H]2O[C@](O)(C[C@@H](O)C[C@@H](O)[C@H](O)CC[C@@H](O)C[C@@H](O)CC(=O)O[C@H]1C)C[C@H](O)[C@H]2C(=O)O [AMPHOTERICIN B]', 'Candida albicans', 25),
  ('Clc1ccccc1[C@H]1N[C@@H](c2ccccc2Cl)C2CCCC1/C2=N/N=c1/[nH]c(-c2ccccc2)cs1', 'Candida albicans', 25);

The record that follows has no MIC shown yet.
Noted MIC for `Fc1ccc([C@H]2N[C@@H](c3ccc(F)cc3)C3CCCC2/C3=N/N=c2\scc(-c3ccccc3)n2-c2ccccc2)cc1` , tested on Candida albicans: 12.5

* * *

System: Aspergillus flavus
Experiment: Antifungal activity against Aspergillus flavus ATCC 485 after 72 to 96 hrs by twofold serial dilution method
Type: functional
recorded_metric: MIC

Recorded MIC, per entry:
INSERT INTO assay_data (compound, experimental_result) VALUES
  ('Fc1cccc([C@H]2N[C@@H](c3cccc(F)c3)C3CCCC2/C3=N/N=c2\scc(-c3ccccc3)n2-c2ccccc2)c1', '200 µg/mL'),
  ('Fc1cccc([C@H]2N[C@@H](c3cccc(F)c3)C3CCCC2/C3=N/N=c2/[nH]c(-c3ccccc3)cs2)c1', '100 µg/mL'),
  ('Cc1ccc([C@H]2N[C@@H](c3ccc(C)cc3)C3CCCC2/C3=N/N=c2/[nH]c(-c3ccccc3)cs2)cc1', '200 µg/mL');

For record `Fc1ccc([C@H]2N[C@@H](c3ccc(F)cc3)C3CCCC2/C3=N/N=c2/[nH]c(-c3ccccc3)cs2)cc1` the listed MIC is 6.25 µg/mL

# MIC of C[C@@H]1[C@H](O)[C@@H](C)/C=C/C=C/C=C/C=C/C=C/C=C/C=C/[C@H](O[C@@H]2O[C@H](C)[C@@H](O)[C@H](N)[C@@H]2O)C[C@@H]2O[C@](O)(C[C@@H](O)C[C@@H](O)[C@H](O)CC[C@@H](O)C[C@@H](O)CC(=O)O[C@H]1C)C[C@H](O)[C@H]2C(=O)O [AMPHOTERICIN B] = 50 µg/mL

The measured MIC associated with `Clc1ccc([C@H]2N[C@@H](c3ccc(Cl)cc3)C3CCCC2/C3=N/N=c2\scc(-c3ccccc3)n2-c2ccccc2)cc1` reads 100 µg/mL

Value of measured MIC for the entry `c1ccc(-c2cs/c(=N\N=C3\C4CCCC3[C@H](c3ccccc3)N[C@@H]4c3ccccc3)n2-c2ccccc2)cc1` : 100 µg/mL

Item: `Fc1ccc([C@H]2N[C@@H](c3ccc(F)cc3)C3CCCC2/C3=N/N=c2\scc(-c3ccccc3)n2-c2ccccc2)cc1` | MIC: 200 µg/mL
